The reported numbers originate from patent US9737535B2.

# Test system: Hs-578-T
# procedureDetails: Anti-proliferation assay (ATPLite), Chalice synergy score
# Assay type: cell-based
# conditionNotes: Compound 1 in combination with second active agent, mean self-cross + 2σ threshold 4.09
# label = True if Synergy score >= 2 else False

>  <compound>
CC1=C(C(=O)Nc2cc3cn[nH]c3cc2F)C(c2ccc(C(F)(F)F)cc2)CC(=O)N1 (centres unmarked) [GSK429286A]

>  <cat>
True

$$$$
>  <compound>
COc1ccc(Cl)c(Nc2nc3ccccc3nc2NS(=O)(=O)c2cccc(NC(=O)C(C)(C)N)c2)c1

>  <cat>
False

$$$$
>  <compound>
O=C(NC(NC(=S)Nc1ccc(F)c([N+](=O)[O-])c1)C(Cl)(Cl)Cl)C(c1ccccc1)c1ccccc1 (centres unmarked)

>  <cat>
True

$$$$
>  <compound>
CS(=O)(=O)N1CCN(Cc2cc3nc(-c4cccc5[nH]ncc45)nc(N4CCOCC4)c3s2)CC1

>  <cat>
True

$$$$
>  <compound>
CNC(=O)c1ccc(-c2cnc3ncc(Cc4ccc5ncccc5c4)n3n2)cc1F

>  <cat>
False

$$$$
>  <compound>
CCN(CCO)CCCOc1ccc2c(Nc3cc(CC(=O)Nc4cccc(F)c4)[nH]n3)ncnc2c1

>  <cat>
True

$$$$
>  <compound>
O=C(O)c1ccc2c(c1)nc(Nc1cccc(Cl)c1)c1ccncc12

>  <cat>
True

$$$$
>  <compound>
CCc1cc(Nc2nccc(-c3c(-c4ccc(OC)c(C(=O)Nc5c(F)cccc5F)c4)nc4ccccn34)n2)c(OC)cc1N1CCC(N2CCN(S(C)(=O)=O)CC2)CC1 [GSK1904529A]

>  <cat>
False

$$$$
>  <compound>
COc1ccc(-c2ccc3c(N4CCOC[C@@H]4C)nc(N4CCOC[C@@H]4C)nc3n2)cc1CO

>  <cat>
False

$$$$
>  <compound>
O=C(/C=C/c1cccc(S(=O)(=O)Nc2ccccc2)c1)NO

>  <cat>
True

$$$$
>  <compound>
Clc1ccc(C2(c3ccc(-c4cn[nH]c4)cc3)CCNCC2)cc1

>  <cat>
True

$$$$
>  <compound>
O=C(NC[C@H](O)CO)c1ccncc1Nc1ccc(I)cc1F

>  <cat>
True

$$$$
>  <compound>
COc1ccc(-c2cc3nccn3c(Nc3ncccc3C(N)=O)n2)cc1OC.Cl [BAY61-3606 Hydrochloride]

>  <cat>
True

$$$$
>  <compound>
O=C(Nc1cc(C(F)(F)F)cc(C(F)(F)F)c1)c1cc(Cl)ccc1O

>  <cat>
True

$$$$
>  <compound>
O=C(NOC[C@H](O)CO)c1ccc(F)c(F)c1Nc1ccc(I)cc1F

>  <cat>
True

$$$$
>  <compound>
CNC(=O)c1cc(Oc2ccc(NC(=O)Nc3ccc(Cl)c(C(F)(F)F)c3)cc2)ccn1

>  <cat>
False

$$$$
>  <compound>
Cc1ccc(S(=O)(=O)/C=C/C#N)cc1

>  <cat>
False

$$$$

###

# System: MDA-MB-436
# procedureDetails: Anti-proliferation assay (ATPLite), Chalice synergy score
# Type: cell-based
# conditionNotes: Compound 1 in combination with second active agent, mean self-cross + 2σ threshold 1.91
Counter-ions that a name gives are not always drawn.

>  <compound>
COCCn1c2c([n+](Cc3cnccn3)c1C)C(=O)c1ccccc1C2=O

>  <assayedSystem>
MDA-MB-436

>  <Synergy score>
2.79

$$$$
>  <compound>
C[C@@H]1CN(CC(=O)Nc2ccc3c(c2)Cc2cccc(-c4cc(=O)cc(N5CCOCC5)o4)c2S3)C[C@H](C)O1

>  <assayedSystem>
MDA-MB-436

>  <Synergy score>
0.13

$$$$
>  <compound>
OCCn1cc(-c2ccc3c(c2)CC/C3=N\O)c(-c2ccncc2)n1

>  <assayedSystem>
MDA-MB-436

>  <Synergy score>
0.13

$$$$
>  <compound>
C[C@]12CC[C@@H]3c4ccc(O)cc4C[C@@H](CCCCCCCCC[S+]([O-])CCCC(F)(F)C(F)(F)F)[C@H]3[C@@H]1CC[C@@H]2O (some centres unmarked)

>  <assayedSystem>
MDA-MB-436

>  <Synergy score>
0.74

$$$$
>  <compound>
COc1ccc(-c2cc3nccn3c(Nc3ncccc3C(N)=O)n2)cc1OC.Cl [BAY61-3606 Hydrochloride]

>  <assayedSystem>
MDA-MB-436

>  <Synergy score>
0.94

$$$$
>  <compound>
O=C(O)c1ccc2c(c1)nc(Nc1cccc(Cl)c1)c1ccncc12

>  <assayedSystem>
MDA-MB-436

>  <Synergy score>
1.70

$$$$
>  <compound>
C=CCn1c(=O)c2cnc(Nc3ccc(N4CCN(C)CC4)cc3)nc2n1-c1cccc(C(C)(C)O)n1

>  <assayedSystem>
MDA-MB-436

>  <Synergy score>
1.45

$$$$
>  <compound>
CC[C@@H]1C(=O)N(C)c2cnc(Nc3ccc(C(=O)NC4CCN(C)CC4)cc3OC)nc2N1C1CCCC1

>  <assayedSystem>
MDA-MB-436

>  <Synergy score>
2.95

$$$$
>  <compound>
C=CC(=O)Nc1ccc2ncnc(Nc3ccc(OCc4cccc(F)c4)c(Cl)c3)c2c1

>  <assayedSystem>
MDA-MB-436

>  <Synergy score>
2.08

$$$$
>  <compound>
O=C(NC[C@H](O)CO)c1ccncc1Nc1ccc(I)cc1F

>  <assayedSystem>
MDA-MB-436

>  <Synergy score>
2.25

$$$$
>  <compound>
COc1ccc(-c2ccc3c(N4CCOC[C@@H]4C)nc(N4CCOC[C@@H]4C)nc3n2)cc1CO

>  <assayedSystem>
MDA-MB-436

>  <Synergy score>
0.15

$$$$
>  <compound>
CS(=O)(=O)N1CCN(Cc2cc3nc(-c4cccc5[nH]ncc45)nc(N4CCOCC4)c3s2)CC1

>  <assayedSystem>
MDA-MB-436

>  <Synergy score>
1.25

$$$$
>  <compound>
Cc1ccc(S(=O)(=O)/C=C/C#N)cc1

>  <assayedSystem>
MDA-MB-436

>  <Synergy score>
1.24

$$$$
>  <compound>
CC(=O)c1c(C)c2cnc(Nc3ccc(N4CCNCC4)cn3)nc2n(C2CCCC2)c1=O

>  <assayedSystem>
MDA-MB-436

>  <Synergy score>
0.44

$$$$
>  <compound>
CCc1c2c(nc3ccc(OC(=O)N4CCC(N5CCCCC5)CC4)cc13)-c1cc3c(c(=O)n1C2)COC(=O)[C@]3(O)CC [Irinotecan Hydrochloride]

>  <assayedSystem>
MDA-MB-436

>  <Synergy score>
3.61

$$$$
>  <compound>
Oc1c2ccccc2c2c3c(cccc13)N=N2

>  <assayedSystem>
MDA-MB-436

>  <Synergy score>
0.79

$$$$
>  <compound>
NC(=O)Nc1cc(-c2cccc(F)c2)sc1C(=O)N[C@H]1CCCNC1

>  <assayedSystem>
MDA-MB-436

>  <Synergy score>
0.93

$$$$
